Tested on: Escherichia coli TOP10
assay notes: shrunken log2 fold change of peptide-encoding DNA abundance (4.5 h post-induction vs induction); higher = less antimicrobial activity (less host growth inhibition)
condition set: time post-induction: 4.5 h; library: site-saturation at positions 5, 18, 19, 20
Answer label 0 if shrunken log2 fold change is under -0.05, and label 1 if it is -0.05 or more.

Solved cases below.
• RRIRCRPPRLPRPRPRPVMNPRP = label 1
• RRIRTRPPRLPRPRPRPQHTPRP = label 0
• RRIRCRPPRLPRPRPRPCHWPRP = label 1
• RRIRCRPPRLPRPRPRPCQSPRP = label 1
• RRIRVRPPRLPRPRPRPDLTPRP = label 0
• RRIRGRPPRLPRPRPRPCDAPRP = label 1
• RRIRPRPPRLPRPRPRPKFKPRP = label 1
• RRIRQRPPRLPRPRPRPGNHPRP = label 1

Could you tell me if the measured shrunken log2 fold change of `RRIRFRPPRLPRPRPRPKHVPRP` reaches -0.05 or more? label 0

Do the same for `RRIRCRPPRLPRPRPRPENNPRP` please label 0

Do the same for `RRIRHRPPRLPRPRPRPEPMPRP` please label 1

Do the same for `RRIRARPPRLPRPRPRPSKAPRP` please label 0

* * *

System: Escherichia coli TOP10
assay notes: shrunken log2 fold change of peptide-encoding DNA abundance (4.5 h post-induction vs induction); higher = less antimicrobial activity (less host growth inhibition)
condition set: time post-induction: 4.5 h; library: site-saturation at positions 5, 18, 19, 20
Answer n if shrunken log2 fold change is under 0.04, and y if it is 0.04 or more.

Solved cases below.
• RRIRLRPPRLPRPRPRPIETPRP = n
• RRIRWRPPRLPRPRPRPLTDPRP = n
• RRIRARPPRLPRPRPRPPKMPRP = y

Could you tell me if the measured shrunken log2 fold change of `RRIRARPPRLPRPRPRPSPIPRP` reaches 0.04 or more? n

Do the same for `RRIRLRPPRLPRPRPRPIKEPRP` please n

* * *

Test system: Escherichia coli TOP10
assay notes: shrunken log2 fold change of peptide-encoding DNA abundance (4.5 h post-induction vs induction); higher = less antimicrobial activity (less host growth inhibition)
condition set: time post-induction: 4.5 h; library: site-saturation at positions 5, 18, 19, 20
assay metric: shrunken log2 fold change

* RRIRGRPPRLPRPRPRPTSLPRP | 0.542
* RRIRDRPPRLPRPRPRPAMIPRP | -0.129
* RRIRMRPPRLPRPRPRPCKDPRP | -0.0302
* RRIRIRPPRLPRPRPRPAWYPRP | 0.0724
* RRIRWRPPRLPRPRPRPIAKPRP | -0.283

Bench note: what shrunken log2 fold change did `RRIRARPPRLPRPRPRPGNFPRP` show? -0.226

Do the same for `RRIRWRPPRLPRPRPRPQRMPRP` please 0.0753

Do the same for `RRIRFRPPRLPRPRPRPHSNPRP` please -0.84

* * *

Test system: Escherichia coli TOP10
assay notes: shrunken log2 fold change of peptide-encoding DNA abundance (4.5 h post-induction vs induction); higher = less antimicrobial activity (less host growth inhibition)
condition set: time post-induction: 4.5 h; library: site-saturation at positions 5, 18, 19, 20
Recorded shrunken log2 fold change values for a group of sequences are listed next.
// response body must contain only the number

Past entries and their recorded results:
* RRIRNRPPRLPRPRPRPTGCPRP | -0.0633
* RRIRYRPPRLPRPRPRPFSNPRP | 0.0549
* RRIRVRPPRLPRPRPRPYAKPRP | -0.0931
* RRIRTRPPRLPRPRPRPPDGPRP | -0.0813
* RRIRHRPPRLPRPRPRPGFWPRP | 0.0409

Let us examine a further case.
Bench note: what shrunken log2 fold change did `RRIRIRPPRLPRPRPRPESEPRP` show? -0.0338

* * *

Test system: Escherichia coli TOP10
assay notes: shrunken log2 fold change of peptide-encoding DNA abundance (4.5 h post-induction vs induction); higher = less antimicrobial activity (less host growth inhibition)
condition set: time post-induction: 4.5 h; library: site-saturation at positions 5, 18, 19, 20
assay metric: shrunken log2 fold change
// response body must contain only the number

Past entries and their recorded results:
• RRIRHRPPRLPRPRPRPMYVPRP = 0.0136
• RRIRFRPPRLPRPRPRPFVIPRP = -0.479
• RRIRYRPPRLPRPRPRPSIQPRP = -0.594
• RRIRMRPPRLPRPRPRPRCEPRP = 0.704
• RRIRTRPPRLPRPRPRPCMRPRP = -0.0225

Please state recorded shrunken log2 fold change (tested on Escherichia coli TOP10) of `RRIRLRPPRLPRPRPRPRTGPRP` 0.321

Do the same for `RRIRIRPPRLPRPRPRPLYHPRP` please -0.761

Do the same for `RRIRVRPPRLPRPRPRPNPTPRP` please -0.325

Do the same for `RRIRMRPPRLPRPRPRPDVFPRP` please 0.387

Do the same for `RRIRLRPPRLPRPRPRPIEVPRP` please 0.434

Do the same for `RRIRLRPPRLPRPRPRPKKKPRP` please 0.141

Do the same for `RRIRNRPPRLPRPRPRPDFYPRP` please -0.24

Do the same for `RRIRKRPPRLPRPRPRPWPMPRP` please 0.915

Do the same for `RRIRYRPPRLPRPRPRPLMSPRP` please -0.0164

Do the same for `RRIRFRPPRLPRPRPRPHIWPRP` please -0.57

* * *

Test system: Escherichia coli TOP10
assay notes: shrunken log2 fold change of peptide-encoding DNA abundance (4.5 h post-induction vs induction); higher = less antimicrobial activity (less host growth inhibition)
condition set: time post-induction: 4.5 h; library: site-saturation at positions 5, 18, 19, 20
assay metric: shrunken log2 fold change

Past entries and their recorded results:
• RRIRYRPPRLPRPRPRPYFMPRP = -1.17
• RRIRTRPPRLPRPRPRPLKGPRP = -0.377

Bench note: what shrunken log2 fold change did `RRIRERPPRLPRPRPRPEYTPRP` show? -0.313

Do the same for `RRIRYRPPRLPRPRPRPDAPPRP` please -0.0708

Do the same for `RRIRGRPPRLPRPRPRPYEMPRP` please 0.0132

* * *

Test system: Escherichia coli TOP10
assay notes: shrunken log2 fold change of peptide-encoding DNA abundance (4.5 h post-induction vs induction); higher = less antimicrobial activity (less host growth inhibition)
condition set: time post-induction: 4.5 h; library: site-saturation at positions 5, 18, 19, 20
Recorded shrunken log2 fold change values for a group of sequences are listed next.

Past entries and their recorded results:
* RRIRSRPPRLPRPRPRPNSDPRP | -0.0183
* RRIRNRPPRLPRPRPRPHPDPRP | -0.15
* RRIRGRPPRLPRPRPRPLMHPRP | 0.592
* RRIRRRPPRLPRPRPRPMCCPRP | -0.0111
* RRIRCRPPRLPRPRPRPANWPRP | 0.938

Please state recorded shrunken log2 fold change (tested on Escherichia coli TOP10) of `RRIRHRPPRLPRPRPRPTKHPRP` -0.142

Do the same for `RRIRYRPPRLPRPRPRPMIFPRP` please -1.43

Do the same for `RRIRQRPPRLPRPRPRPHRFPRP` please -0.275

Do the same for `RRIRWRPPRLPRPRPRPPSPPRP` please 0.598

Do the same for `RRIRNRPPRLPRPRPRPCYFPRP` please -0.408

* * *

System: Escherichia coli TOP10
assay notes: shrunken log2 fold change of peptide-encoding DNA abundance (4.5 h post-induction vs induction); higher = less antimicrobial activity (less host growth inhibition)
condition set: time post-induction: 4.5 h; library: site-saturation at positions 5, 18, 19, 20
assay metric: shrunken log2 fold change
// response body must contain only the number

Past entries and their recorded results:
- RRIRSRPPRLPRPRPRPFPNPRP: -0.133
- RRIRIRPPRLPRPRPRPRNSPRP: 0.0503
- RRIRFRPPRLPRPRPRPHHQPRP: -0.963

Bench note: what shrunken log2 fold change did `RRIRDRPPRLPRPRPRPIPGPRP` show? 0.171

Do the same for `RRIRWRPPRLPRPRPRPATGPRP` please 0.0426

Do the same for `RRIRPRPPRLPRPRPRPTMFPRP` please -0.164

Do the same for `RRIRERPPRLPRPRPRPKAVPRP` please 0.0311

Do the same for `RRIRDRPPRLPRPRPRPRTSPRP` please 0.353

Do the same for `RRIRGRPPRLPRPRPRPDTGPRP` please -0.0756

Do the same for `RRIRKRPPRLPRPRPRPALAPRP` please 0.885

* * *

Tested on: Escherichia coli TOP10;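 further: peptides expressed intracellularly from a pBAD plasmid library in pooled LB shake-flask culture, induced with 0.3% L-arabinose, DNA abundance read by NGS, three biological replicates, DESeq2 with apeglm shrinkage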
assay notes: shrunken log2 fold change of peptide-encoding DNA abundance (4.5 h post-induction vs induction); higher = less antimicrobial activity (less host growth inhibition)
condition set: time post-induction: 4.5 h; library: site-saturation at positions 5, 18, 19, 20
Answer F if shrunken log2 fold change is under -0.01, and T if it is -0.01 or more.

Solved cases below.
• RRIRRRPPRLPRPRPRPFQLPRP = T
• RRIRQRPPRLPRPRPRPWKGPRP = T
• RRIRLRPPRLPRPRPRPYVQPRP = F
• RRIRYRPPRLPRPRPRPGKRPRP = F
• RRIRGRPPRLPRPRPRPYIDPRP = T

Could you tell me if the measured shrunken log2 fold change of `RRIRSRPPRLPRPRPRPAMDPRP` reaches -0.01 or more? T

Do the same for `RRIRSRPPRLPRPRPRPEHCPRP` please F

Do the same for `RRIRRRPPRLPRPRPRPFFNPRP` please F

Do the same for `RRIRNRPPRLPRPRPRPFMSPRP` please F

Do the same for `RRIRIRPPRLPRPRPRPVYMPRP` please F

Do the same for `RRIRTRPPRLPRPRPRPIASPRP` please F

Do the same for `RRIRMRPPRLPRPRPRPNDMPRP` please F

Do the same for `RRIRNRPPRLPRPRPRPNLSPRP` please F

Do the same for `RRIRPRPPRLPRPRPRPLMRPRP` please T

Do the same for `RRIRCRPPRLPRPRPRPGDGPRP` please T
